Each recorded value in this set is attributed to PubChem BioAssay (NCI).

System: HCT-15 colon
Assay: NCI tumour cell line growth inhibition, 48 h
Where a SMILES comes first, the peptide text is derived from it. [ ]: non-standard residue; d: D form. The star is where a group is joined. Phe(4-NO2) = N[CH](Cc1ccc([N+](=O)[O-])cc1)C(=O)O; Cbz = O=C(OCc1ccccc1)*
quantityName: TGI

1. COc1ccccc1/C=C/C(=O)c1c(O)cc2occc2c1OC    > 100 µM
2. O=C1OC2C(O)COC2(O)C1(O)C(C[N+](=O)[O-])c1ccc(Cl)cc1 (centres undefined)    16.7 µM
3. Cc1c(C#N)c(N)[nH]c(=S)c1C#N    > 100 µM
4. CN[C@@H](C)C(=O)N[C@H]1CN(C(=O)CC(C)C)CC[C@H]2CC[C@@H](C(=O)NC(c3ccccc3)c3ccccc3)N2C1=O    > 100 µM
5. CCOC(=O)CC(=O)C(=O)NNC1=NCCN1    > 100 µM
6. CNC1C(O)C(NC)C2OC3(O)C(=O)CC(C)OC3OC2C1O (centres undefined)    > 100 µM
7. N#CC(/C(=N\NC(=O)c1ccncc1)C(=O)Nc1ccc([N+](=O)[O-])cc1[N+](=O)[O-])c1nc(-c2ccc(Br)cc2)cs1 (centres undefined)    > 100 µM
8. COC(=O)C(Cc1ccccc1)NC(=O)C(CCC(=O)OCc1ccccc1)NC(=O)OC(C)(C)C (centres undefined)    > 100 µM
9. O=c1cc(-c2ccccc2)oc2cc(OCC(O)COc3ccc4c(=O)cc(-c5ccccc5)oc4c3)ccc12    > 100 µM
10. CCOC(=O)CCC(NC(=O)OCc1ccccc1)C(=O)NC(CCC(=O)OCC)C(=O)NC(Cc1ccc([N+](=O)[O-])cc1)C(=O)NC(CCC(=O)OCC)C(=O)NC(CCC(=O)OCC)C(=O)OCC (centres undefined) (Cbz-E(OEt)E(OEt)[Phe(4-NO2)]E(OEt)E(OEt)-OEt; configuration not given here)    > 100 µM

# return recorded TGI for entry O=c1c(-c2ccccc2)c2oc(c1-c1ccccc1)CS(=O)(=O)CCC2
32.9 µM

State its TGI for this molecule: Cc1cc2nc3c(C#N)c(-c4ccccc4)/c(=C\Nc4ccc(Cl)cc4)c(=O)n3c2cc1C
> 100 µM

Using the record for O=C1Oc2ccccc2C(=O)/C1=C/N1C(=O)/C(=C/c2ccc3c(c2)OCO3)SC1=S , state its measured TGI.
33.2 µM

Identify the reported TGI for the following entry. O=C(NO)c1ccc(OCc2cccc(Cl)c2)cc1
29.9 µM

Quickly give me recorded TGI for CN(C)CC1CCCC(CN2CCCCC2)C1=O (centres undefined)
27.9 µM

====

Tested on: SK-OV-3 ovarian
Test: NCI tumour cell line growth inhibition, 48 h
quantityName: TGI

Example results:
1. NCCCCCCCCn1c2c(c3ccccc3c1=O)C(=O)c1ccccc1-2    39.4 µM
2. Cc1ccccc1[P+](C)(c1ccccc1C)c1ccccc1C    > 100 µM

Query TGI for C1CCC(OCc2nnn3c2CCC3)OC1 (stereo not given)
> 100 µM

Give a short answer stating reported TGI for CC1CN(c2ccc(Cl)cc2)CC(C)(C)OC(=O)O1 (stereo not given) .
> 100 µM

Give me measured TGI, please, for this compound: O=C(CSc1nc2ccccc2nc1-c1ccccc1)Nc1ccc(Cl)cc1
> 100 µM

Return the recorded TGI value; entry: CC(C)(C)OC(=O)[C@@H]1CCC(=S)N1Cc1ccccc1
> 100 µM

Indicate the recorded TGI value for this compound: CCc1n[nH]c(=O)n1N1C(=O)CCC1=O
> 100 µM
